Molecular target: T1, TONSL Ankyrin Repeat Domain (ARD, residues 512-692), purified recombinant (human, UniProt Q96HA7 512-692)
T1 construct: Expressed as a GST fusion in E. coli; Used in ITC, peptide pull-down and native MS; also called TONSL ARD; TONSL-ARD
T1 sequence: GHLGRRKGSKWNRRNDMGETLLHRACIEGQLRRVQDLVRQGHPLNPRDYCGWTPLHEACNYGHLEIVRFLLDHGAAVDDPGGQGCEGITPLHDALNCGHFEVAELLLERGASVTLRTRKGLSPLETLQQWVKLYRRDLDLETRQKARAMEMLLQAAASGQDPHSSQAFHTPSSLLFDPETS
Assay: native MS, apparent Kd
Where no end group is shown, it is not given here.
recorded endpoint: Kd (nM)

Recorded results for 2 binders are shown here.
[[record]]
binder = "KGGAARHRKVLR-NH2 (H4 12-23 with Lys16 replaced by Ala) [Lys-Gly-Gly-Ala-Ala-Arg-His-Arg-Lys-Val-Leu-Arg-NH2, Example 15]"
recorded_endpoint = "Kd"
measurement = 400

[[record]]
binder = "KGGAKRHRKVLR-NH2 [Lys-Gly-Gly-Ala-Lys-Arg-His-Arg-Lys-Val-Leu-Arg-NH2, Example 13]"
recorded_endpoint = "Kd"
measurement = 100


A = AKRHRKVLR-NH2 [Ala-Lys-Arg-His-Arg-Lys-Val-Leu-Arg-NH2, Example 12]
B = KGGAKRHAKVLR-NH2 (H4 12-23 with Arg19 replaced by Ala) [Lys-Gly-Gly-Ala-Lys-Arg-His-Ala-Lys-Val-Leu-Arg-NH2, Example 14]
Looking at recorded values for Kd, does A or B come in lower? # reply format: chosen label B
(B: 1000 nM, A: 2200 nM)
